molecular target: canine TRPM8 (Canis lupus familiaris, UniProt Q1A7N1); test: In Vitro Canine TRPM8 Functional Assay (Ca2+ fluorescence, icilin activation); assay type: cell-based; conditions: HEK293 cells stably expressing canine TRPM8; icilin activation; eight-point dose-response; read-out: IC50
Sequence (Q1A7N1 1-1104): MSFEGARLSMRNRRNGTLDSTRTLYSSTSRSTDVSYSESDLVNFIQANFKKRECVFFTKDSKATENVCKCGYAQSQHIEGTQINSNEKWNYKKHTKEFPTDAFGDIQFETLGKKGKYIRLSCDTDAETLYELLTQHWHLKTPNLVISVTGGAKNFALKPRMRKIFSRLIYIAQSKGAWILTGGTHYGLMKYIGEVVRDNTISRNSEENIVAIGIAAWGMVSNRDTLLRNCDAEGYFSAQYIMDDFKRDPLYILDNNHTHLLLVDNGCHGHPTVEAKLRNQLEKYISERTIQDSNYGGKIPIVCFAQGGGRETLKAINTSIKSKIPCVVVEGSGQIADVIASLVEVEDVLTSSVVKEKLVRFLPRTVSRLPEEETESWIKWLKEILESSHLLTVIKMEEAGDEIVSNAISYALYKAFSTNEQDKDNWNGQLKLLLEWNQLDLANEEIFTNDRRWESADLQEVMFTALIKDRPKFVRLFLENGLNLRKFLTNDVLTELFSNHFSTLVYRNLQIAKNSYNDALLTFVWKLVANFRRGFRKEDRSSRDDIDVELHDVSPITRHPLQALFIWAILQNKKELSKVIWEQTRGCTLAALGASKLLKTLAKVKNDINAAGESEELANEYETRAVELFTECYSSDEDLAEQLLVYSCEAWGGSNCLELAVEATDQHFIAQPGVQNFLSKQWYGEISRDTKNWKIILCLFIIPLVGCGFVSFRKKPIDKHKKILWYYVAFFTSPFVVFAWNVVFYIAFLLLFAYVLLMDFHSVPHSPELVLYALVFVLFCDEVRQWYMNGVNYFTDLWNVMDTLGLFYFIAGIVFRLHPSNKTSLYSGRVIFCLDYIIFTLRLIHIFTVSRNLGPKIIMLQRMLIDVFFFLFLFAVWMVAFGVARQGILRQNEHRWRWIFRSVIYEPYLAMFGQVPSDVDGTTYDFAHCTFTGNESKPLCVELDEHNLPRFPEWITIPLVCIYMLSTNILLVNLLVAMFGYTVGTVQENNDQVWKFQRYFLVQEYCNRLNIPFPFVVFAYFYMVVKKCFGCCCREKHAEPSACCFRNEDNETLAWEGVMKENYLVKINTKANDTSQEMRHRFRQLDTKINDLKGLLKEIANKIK
pIC50: −log10 of the molar value.
Metric name: pIC50

O=S(=O)(c1ccccc1)N(Cc1ccccc1OC(F)(F)F)c1cc2ccccc2s1 [Compound 56]	6.99
Cc1c(N(CCCC(F)(F)F)S(=O)(=O)c2ccccc2)sc2ccccc12 [Compound 616]	7.89
COc1ccccc1CN(c1cc2ccccc2s1)S(=O)(=O)c1ccccc1 [Compound 47]	6.95
Nc1ccc(S(=O)(=O)N(Cc2ccc(F)c(C(F)(F)F)c2)c2cc3ccccc3s2)cc1 [Compound 653]	7.89
Cc1c(N(Cc2ccc(F)c(C(F)(F)F)c2)S(=O)(=O)CCCCn2ccnc2)sc2ccccc12 [Compound 779]	7.31

P = Nc1ccc(S(=O)(=O)N(CCC(F)(F)F)c2cc3ccccc3s2)cc1 [Compound 499]
Q = CCS(=O)(=O)N(Cc1cccc(OC)c1F)c1sc2ccccc2c1C(C)(C)O [Compound 776]
Between these two entries, P and Q , state which has the higher pIC50. When you have decided, please share the label of that item.
Q

I = CC1=C(N(CCCC(F)(F)F)S(=O)(=O)c2ccccc2)S(=O)(=O)c2ccccc21 [Compound 620]
II = CC(=O)c1ccc(S(=O)(=O)N(Cc2ccc(F)c(C(F)(F)F)c2)c2sc3ccccc3c2Br)cc1 [Compound 312]
III = O=C(O)c1ccc(S(=O)(=O)N(Cc2ccc(F)c(C(F)(F)F)c2)c2cc3ccccc3s2)cc1 [Compound 296]
Please put the entries in order of rising pIC50. Rank the items, then write their labels in that order.
I, II, III
(I: 7.63, II: 7.96, III: 8.70)

P = Cc1c(N(Cc2ccc(F)c(C(F)(F)F)c2)S(=O)(=O)CCO)sc2ccccc12 [Compound 793]
Q = C=CCN(c1sc2ccccc2c1Cl)S(=O)(=O)c1ccccc1 [Compound 84]
Between these two entries, P and Q , state which has the higher pIC50. When you have decided, please share the label of that item.
P

1 = CCS(=O)(=O)N(Cc1ccc(F)c(C(F)(F)F)c1)c1sc2ccccc2c1C#N [Compound 198]
2 = CNc1ccc(S(=O)(=O)N(CCC2CC2)c2sc3ccccc3c2Br)cc1 [Compound 693]
Problem: Given the entries 1 and 2 , determine which has the lower reported pIC50. When you have decided, please share the label of that item.
2
(2: 7.60, 1: 8.00)

###

biological target: canine TRPM8 (Canis lupus familiaris, UniProt Q1A7N1); experiment: In Vitro Canine TRPM8 Functional Assay (Ca2+ fluorescence, icilin activation); format: cell-based; conditions: HEK293 cells stably expressing canine TRPM8; icilin activation; eight-point dose-response; read-out: IC50
pIC50: −log10 of the molar value.
Metric name: pIC50

Cc1c(N(Cc2ccc(F)c(C(F)(F)F)c2)S(=O)(=O)c2ccc(-c3nsc(=O)[nH]3)cc2)sc2ccccc12	8.48
CCS(=O)(=O)N(Cc1ccc(OC(F)(F)F)cc1)c1sc2ccccc2c1C	7.97

a = Cc1c(N(Cc2ccc(F)c(F)c2)S(=O)(=O)c2cn(C)cn2)sc2ccccc12
b = O=S(=O)(c1ccccc1)N(Cc1ccccc1F)c1cc2ccccc2s1
Between these two entries, a and b , state which has the higher pIC50. When you have decided, please share the label of that item.
a
